- assayedSystem: preformed immune complex of peroxidase-rabbit anti-peroxidase IgG (PAP complex) (rabbit; horseradish) (UniProt P00433)
- Sequence (P00433 31-338, one chain of several): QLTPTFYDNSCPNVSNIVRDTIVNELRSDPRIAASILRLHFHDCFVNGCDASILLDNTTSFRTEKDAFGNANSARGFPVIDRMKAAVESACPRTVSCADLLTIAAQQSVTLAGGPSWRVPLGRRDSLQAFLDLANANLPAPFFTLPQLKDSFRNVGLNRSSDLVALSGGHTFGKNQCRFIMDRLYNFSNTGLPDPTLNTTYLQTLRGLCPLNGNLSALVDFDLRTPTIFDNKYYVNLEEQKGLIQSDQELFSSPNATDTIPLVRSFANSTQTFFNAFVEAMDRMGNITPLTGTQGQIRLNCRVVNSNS
- procedureSummary: competition reverse ELISA: PAP pre-incubated with peptide, residual PAP binding to C1q-coated plate (competitor: immobilized C1q)
No end group written: not given here.
In this section we review reported OD 405 nm values for a set of binders.
Use OD 405 nm as the unit, but write only the number.

Ask: Tell me the measured OD 405 nm of APPCAWHLGELVWCT (not fully specified; cysteine pairing not given here) [Peptide … (SEQ ID NO:13)] , please.
Reply: 1.15

Ask: Now the same for APPCARHLGELVWCT (not fully specified; cysteine pairing not given here) [Peptide … (SEQ ID NO:14)]
Reply: 0.567

Ask: Do the same for APPDCAWHLGELVWCT [Peptide … (SEQ ID NO:16)] please
Reply: 0.389

Ask: Now the binder DCAFHLGELVWCT [Peptide … (SEQ ID NO:3)]
Reply: 0.859

Ask: What about this binder? APPCAFHLGELVWCT (not fully specified; cysteine pairing not given here) [Peptide … (SEQ ID NO:15)]
Reply: 0.983

# credit: patent US20080187490A1
